The values you see were collected from PubChem BioAssay (NCI).

tested on: IGROV1 ovarian; experiment: NCI tumour cell line growth inhibition, 48 h

| Compound | GI50 |
| --- | --- |
| COc1ccc(Nc2ccnc(NCCCNc3ccnc4cc(Cl)ccc34)n2)cc1 | 1.48 µM |
| COc1ccc2c(c1)Cc1c-2c(NN)nc2ccccc12 | 24.6 µM |
| C=C[C@]1(C)C=C2C(=O)[C@@]3(O)OC(=O)[C@@]4(CCCC(C)(C)[C@H]34)[C@@]2(O)CC1 | 2.16 µM |
| CO[C@H]1CC[C@@]2(C)C(=CC[C@H]3[C@@H]4C[C@H](O)C[C@@]4(C)CC[C@@H]32)C1 | 6.91 µM |
| Cc1cc(C)nc(SC2=C(Nc3cccc(Cl)c3)C(=O)N(Cc3ccccc3)C2=O)n1 | > 170 µM |
| C/C(=C\c1ccn(-c2ccc(N)cc2)n1)[C@@H]1C[C@@H]2O[C@]2(C)CCC[C@H](C)[C@H](O)[C@@H](C)C(=O)C(C)(C)[C@@H](O)CC(=O)O1 | 0.494 µM |
| Cc1ccc(C(=O)NC2CCCCC2)cc1-c1ccc(C(=O)NCC2CC2)cc1 | > 25 µM |
| CC1(C)C2CCC13C(=O)C1OC3(C2)C2C(=O)c3c(O)ccc(O)c3C(=O)C12 (stereo not given) | 23.8 µM |
| C/C(=C\c1c[nH]c2ccccc12)[N+](=O)[O-] | 5.43 µM |
| COc1cc(-c2nc3ccccc3s2)ccc1OCc1nc2n(n1)S(=O)(=O)c1ccccc1N2C | > 100 µM |

---

system: ACHN renal; experiment: NCI tumour cell line growth inhibition, 48 h
Reported GI50 values for a set of molecules
Measured Property: GI50

| Molecule | Measured Property | Assay Result |
| --- | --- | --- |
| C[C@]12CCC(=O)C=C1CC[C@@H]1[C@@H]2CC[C@]2(C)C(=O)/C(=C/c3cccc(OCCN4CCOCC4)c3)C[C@@H]12 | GI50 | 18.7 µM |
| CCCCCCCCCCCCCCCCOCCCOP(=O)(O)C1CCCN(O)C1=O (centres undefined) | GI50 | 3.2 µM |
| Cn1cc(C2=C(c3c4n(c5ccccc35)CCC(CN)CC4)C(=O)NC2=O)c2ccccc21 (centres undefined) | GI50 | 4.43 µM |
| [N-]=[N+]=CC(=O)OCC(N)C(=O)O (centres undefined) | GI50 | 1.7 µM |
| COc1ccc(-c2nc(-c3nc4cc(C)c(C)cc4[nH]3)cc3c2[nH]c2ccccc23)cc1 | GI50 | 2.6 µM |
| COc1ccc(F)cc1C(=O)c1cnc(NC2CCN(S(C)(=O)=O)CC2)nc1N | GI50 | 1.55 µM |
| COc1cc2c(cc1OC)[C@@]1(C)C(=O)c3cc4c(cc3[C@H]1N(C)C2=O)OCO4 | GI50 | 52.2 µM |
| CC/C(=C(\CC)c1ccc(OCCN(CC)CC)cc1)c1ccc(OCCN(CC)CC)cc1 | GI50 | 3.99 µM |
| CN(C)CC1CCn2c(c(C3=C(c4cn(C)c5ccccc45)C(=O)NC3=O)c3ccccc32)C1 (centres undefined) | GI50 | 3.88 µM |

---

Reported TGI values for a set of compounds
test system: A549 NSCLC; assay: NCI tumour cell line growth inhibition, 48 h
Measured Property: TGI

| Compound | Assay Result |
| --- | --- |
| CCNc1nc(N2CC(=O)Nc3cc(OC)ccc32)c2ccccc2n1 | > 100 µM |
| COc1cc(-c2nc3ccccc3s2)ccc1OCc1nc2n(n1)S(=O)(=O)c1ccccc1N2C | > 100 µM |
| COc1cc(-c2c(C)c(C)nc(OC)c2C#N)cc(OC)c1OC | > 100 µM |
| N=C(N)C1CN(CC=O)C(=O)NC1=O (stereo unspecified) | > 100 µM |
| CCCCCCCCCCCCCCCCOCCCOP(=O)(O)C1CCCN(O)C1=O (stereo unspecified) | 14.4 µM |
| CSC(=N)N1N=C2c3ccccc3CC[C@@H]2[C@@H]1c1ccccc1 | 34.2 µM |
| C[C@@H]1OC2(O)[C@@H]3CCCN3C(=O)N(Cc3ccccc3)N2C1=O (stereo partly specified) | > 100 µM |
| CC1(C)C2CCC13C(=O)C1OC3(C2)C2C(=O)c3c(O)ccc(O)c3C(=O)C12 (stereo unspecified) | > 100 µM |
| COc1ccc(F)cc1C(=O)c1cnc(NC2CCN(S(C)(=O)=O)CC2)nc1N | > 23.7 µM |
| COC(=O)c1nc2c3c(cccc3c1C(=O)OC)Nc1ccccc1-2 | > 100 µM |
| COc1cc(C(=O)n2nc(N3CCN(C)CC3)c3cc(N)ccc32)cc(OC)c1OC | > 100 µM |

---

test system: OVCAR-8 ovarian; test: NCI tumour cell line growth inhibition, 48 h
Where a SMILES comes first, the peptide text is derived from it. The star is where a group is joined. OBn = c1ccc(CO*)cc1

| Molecule | TGI |
| --- | --- |
| CN1CCN(C(=S)N(C)C(=O)c2cccs2)CC1 | > 100 µM |
| CN(CCC(=O)O)S(=O)(=O)c1ccccc1 | > 100 µM |
| COc1cc(C2S/C(=C/c3ccccc3)C(=O)N2c2ccc([N+](=O)[O-])cc2)cc(OC)c1OC (stereo not drawn) | > 100 µM |
| CO[C@H](C(=O)N[C@@H](CCCCNC(=O)OCc1ccccc1)C(=O)OC(C)(C)C)[C@@H]1Cc2cc3cc(OC4CC(OC5CC(O)C(O)C(C)O5)C(O)C(C)O4)c(C)c(O)c3c(O)c2C(=O)[C@H]1OC1CC(OC2CC(OC3CC(C)(O)C(O)C(C)O3)C(O)C(C)O2)C(O)C(C)O1 (stereo partly drawn) | > 10 µM |
| NC(CCC(=O)OCc1ccccc1)C(=O)NC(CCC(=O)OCc1ccccc1)C(=O)O (stereo not drawn) (H-Glu(OBn)-Glu(OBn)-OH; configuration not given here) | > 100 µM |
| CN(C)CC1CCn2c(c(C3=C(c4cn(C)c5ccccc45)C(=O)NC3=O)c3ccccc32)C1 (stereo not drawn) | 9.87 µM |
| CCCCCCCCCCCCCCCCOCCCOP(=O)(O)C1CCCN(O)C1=O (stereo not drawn) | 27.8 µM |
| COc1c(O)cc2c(c1O)C1O[C@H](CO)C(O)[C@H](O)[C@H]1OC2=O (stereo partly drawn) | > 100 µM |

---

system: HOP-62 NSCLC; experiment: NCI tumour cell line growth inhibition, 48 h

| Compound | Value Operator | TGI (µM) |
| --- | --- | --- |
| S=C1NN=C2C(=C3CCCC4C5CCCCC5N2C34)N1 (stereo unspecified) | > | 100 |
| CCC[CH2][Sn]([CH2]CCC)([S]C1=NCCS1)[S]C1=NCCS1 | = | 3.55 |
| COc1ccc(/C(Cl)=C(\C=O)c2ccc(Cl)c(Cl)c2)cc1OC | = | 31.7 |
| O=C(C=Nc1ccccc1C(=O)[O-])c1cccs1.O=C(C=Nc1ccccc1C(=O)[O-])c1cccs1.[Cu+2] | > | 100 |
| CC(Oc1ccc(Cl)cc1Cl)C(=O)NN1C(=O)CSC1c1ccc(Cl)cc1 (stereo unspecified) | > | 100 |
| O=C(O)CC1(C(=O)O)CCCCC1 | > | 100 |
| C[C@H](CCC1=NCCN1)[C@H]1CC[C@H]2[C@@H]3CC[C@@H]4C[C@H](O)CC[C@]4(C)[C@H]3CC[C@]12C | = | 20.9 |
| C/C(=N/NC(=S)N1CCCC1)c1cccc(/C(C)=N\NC(=S)N2CCCC2)n1 | = | 0.891 |
| Cc1ccc(S(=O)(=O)n2cc(C(=O)C(=O)Nc3ccncc3)c3ccccc32)cc1 | > | 100 |
| CC(=C(C(=O)O)C(=O)O)c1cc(-c2cccs2)cc(-c2ccc(Cl)cc2)c1O | = | 60.4 |
| C[C@]12CCC(=O)C=C1CC[C@@H]1[C@@H]2CC[C@]2(C)C(=O)/C(=C/c3cccc(OCCN4CCOCC4)c3)C[C@@H]12 | = | 29 |

---

system: SF-539 CNS; experiment: NCI tumour cell line growth inhibition, 48 h

| Compound | Unit Abbrev | Value Operator | TGI |
| --- | --- | --- | --- |
| CC(C)N1CCCOC(c2ccc([N+](=O)[O-])cc2)O1 (configuration not stated) | µM | > | 100 |
| Nc1nncs1 | µM | > | 5000 |
| O=C(NCC#CCO)C(F)(F)F | µM | > | 100 |
| O=C1/C(=C/c2ccc(Cl)cc2)CN(C(=O)C(Cl)Cl)C/C1=C\c1ccc(Cl)cc1 | µM | = | 0.467 |
| Cc1cc(C)nc(SC2=C(Nc3cccc(Cl)c3)C(=O)N(Cc3ccccc3)C2=O)n1 | µM | > | 170 |
| CN(C)CC1CCn2c(c(C3=C(c4cn(C)c5ccccc45)C(=O)NC3=O)c3ccccc32)C1 (configuration not stated) | µM | = | 7.49 |
| Cc1cc(C)n(-c2c(O)ccc(O)c2-n2nc(C)cc2C)n1 | µM | > | 100 |
| CC[C@H](C)C(=O)O[C@H]1CCC=C2C=C[C@H](C)C(CCC3C[C@@H](O)CC(=O)O3)[C@H]21 (some centres not stated) | µM | > | 100 |
| CC1OC(O)CC(OC(=O)c2ccccc2)C1OC(=O)c1ccccc1 (configuration not stated) | µM | = | 31.7 |
| COC(=O)C1C(=O)O[C@@H](c2ccc(OC)cc2OC)C1C(=O)OC (some centres not stated) | µM | > | 100 |
| COc1cccc2c1c1nc3cc(C)c(C)cc3nc1n2CCN(C)C | µM | = | 5.48 |
| CN1CCN(Cc2ccc(Nc3ncc(Cl)c(Nc4ccccc4S(=O)(=O)N(C)C)n3)cc2)CC1 | µM | = | 0.343 |
| CC(C)N(c1cc2c(cc1F)c(=O)c(C(=O)O)cn2-c1ccc(N2CCN(C)CC2)cn1)C(C)C | µM | > | 100 |
| COC(=O)c1nc2c3c(cccc3c1C(=O)OC)Nc1ccccc1-2 | µM | > | 100 |
| COc1ccc(NC(C)=O)cc1N1C(=O)/C(=C\c2cc(OC)c(OC)c(OC)c2)S(=O)(=O)C1c1ccccc1 (configuration not stated) | µM | > | 100 |
| O=c1[nH]c(=O)n(C2CC(O)C(CO)O2)c2nc3ccc4ccccc4c3nc12 (configuration not stated) | µM | > | 100 |
| NC(=O)c1cc(C2OC(CO)C(O)C2O)nn1-c1ccc([N+](=O)[O-])cc1 (configuration not stated) | µM | > | 100 |
| O=C1/C(=C/C(Cl)=C/c2ccccc2)SC(=S)N1CCc1ccc(O)cc1 | µM | = | 3.52 |
| Clc1ccc(CO/N=C(\Cn2ccnc2)c2ccc(Cl)cc2Cl)c(Cl)c1 | µM | = | 3.34 |
| CCC[CH2][Sn]([CH2]CCC)([S]C1=NCCS1)[S]C1=NCCS1 | µM | = | 0.449 |
| CCCCCCCCCCCCNC1(C)CNCCCNCCNCCCNC1 | µM | = | 3.29 |
| CCn1c(SCC(=O)NNC(=S)Nc2ccc(F)cc2)nc2ccccc2c1=O | µM | > | 100 |
| Cc1ccnc2c1ccc1nc3ccccc3n12 | µM | > | 100 |
| CCN(CC)c1ccc2c(c1)N=C1N=CC=CN1C2(c1ccc(N(C)C)cc1)c1ccc(N(C)C)cc1 | µM | = | 28.6 |
| Cc1ccc(NC(=O)c2ccnc(N3CCCC3)c2)cc1-c1ccc(C(=O)NCC2CC2)cc1 | µM | > | 25 |
| C/C(=C\COP(=O)(O)OP(=O)(O)O)CC/C=C(\C)CNc1ccc([N+](=O)[O-])cc1 | µM | > | 100 |
| O=C1/C(=C/c2ccccc2)CCCC/C1=C\c1ccccc1 | µM | > | 100 |
| O=C1c2ccccc2C(=O)c2c(O)c(O)cc(O)c21 | µM | = | 66 |
| O=C(O)Cc1[nH]cnc1C(=O)O | µM | > | 100 |
| COc1cc2c(cc1OC)[C@@]1(C)C(=O)c3cc4c(cc3[C@H]1N(C)C2=O)OCO4 | µM | = | 75.7 |
| Clc1ccc2nc(CCSCCc3nc4ccc(Cl)cc4[nH]3)[nH]c2c1 | µM | = | 32.7 |
| COc1ccccc1N1C(=O)/C(=C\c2cc(OC)c(OC)c(OC)c2)S(=O)(=O)C1c1ccccc1 (configuration not stated) | µM | = | 68 |
| COC(=O)c1c2c(c(C)[n+]([O-])c1C)C(=O)C(NCc1ccc(F)c(F)c1)=CC2=O | µM | = | 4.12 |
| O=C(O)CC1(C(=O)O)CCCCC1 | µM | > | 100 |
| CCOC(=O)C1=C(C)N(NC(=O)c2ccccc2)C2(O)CCCC12C(=O)OCC (configuration not stated) | µM | > | 100 |
| O=C(O)c1cccc(CC(Br)C(=O)O)c1 (configuration not stated) | µM | > | 100 |
| Cc1ncc([N+](=O)[O-])n1CCNC(=O)CCn1ccnc1[N+](=O)[O-] | µM | > | 100 |
| C=C[C@]1(C)C=C2C(=O)[C@@]3(O)OC(=O)[C@@]4(CCCC(C)(C)[C@H]34)[C@@]2(O)CC1 | µM | = | 2.76 |
| O=C1OC2(c3ccc(O)cc3Oc3cc(O)ccc32)c2c1c(-c1ccccc1)c(-c1ccccc1)c(-c1ccccc1)c2-c1ccccc1 | µM | = | 40.8 |
| O=C1c2ccccc2C(=O)c2nc(-c3ccccc3)c(-c3ccccc3)nc21 | µM | > | 100 |
| CCOC(=O)c1c(NC(=O)c2ccc(OC)cc2)sc2c1CCCC2 | µM | > | 100 |
| C[C@@H]1OC2(O)[C@@H]3CCCN3C(=O)N(Cc3ccccc3)N2C1=O (some centres not stated) | µM | > | 100 |
